The reported numbers originate from ChEMBL document CHEMBL3046592.

This section presents compounds with their documented inhibition at 100 ppm values.
Test system: Colletotrichum falcatum
test_name: Fungicidal activity against Glomerella tucumanensis assessed as mycelial inhibition at 100 ppm at 28 +/- 2 degC measured after 7 days by food poison technique
Assay type: functional
stated_conditions: 168 h
metric_name: inhibition at 100 ppm (%)

>  <smiles_representation>
CCOP(=O)(OCC)S/C(=N/N=C/c1ccc(Cl)cc1)N1CCN(/C(=N\N=C\c2ccc(Cl)cc2)SP(=O)(OCC)OCC)CC1

>  <quantity_unit>
%

>  <experimental_value>
72.8

$$$$
>  <smiles_representation>
COc1ccc(/C=N/NC(=S)N2CCN(C(=S)N/N=C/c3ccc(OC)cc3)CC2)cc1

>  <quantity_unit>
%

>  <experimental_value>
37.6

$$$$
>  <smiles_representation>
S=C(N/N=C/c1ccc(Cl)cc1)N1CCN(C(=S)N/N=C/c2ccc(Cl)cc2)CC1

>  <quantity_unit>
%

>  <experimental_value>
35.4

$$$$
>  <smiles_representation>
CCOP(=O)(OCC)S/C(=N/N=C/c1ccccc1)N1CCN(/C(=N\N=C\c2ccccc2)SP(=O)(OCC)OCC)CC1

>  <quantity_unit>
%

>  <experimental_value>
40.2

$$$$
>  <smiles_representation>
S=C(N/N=C/c1ccccc1)N1CCN(C(=S)N/N=C/c2ccccc2)CC1

>  <quantity_unit>
%

>  <experimental_value>
28.9

$$$$
>  <smiles_representation>
CCOP(=O)(OCC)S/C(=N/N=C/c1ccccc1Cl)N1CCN(/C(=N\N=C\c2ccccc2Cl)SP(=O)(OCC)OCC)CC1

>  <quantity_unit>
%

>  <experimental_value>
70.6

$$$$
>  <smiles_representation>
O=[N+]([O-])c1ccc(/C=N/NC(=S)N2CCN(C(=S)N/N=C/c3ccc([N+](=O)[O-])cc3)CC2)cc1

>  <quantity_unit>
%

>  <experimental_value>
24.3

$$$$
>  <smiles_representation>
CCOP(=O)(OCC)S/C(=N/N=C/c1ccc(OC)cc1)N1CCN(/C(=N\N=C\c2ccc(OC)cc2)SP(=O)(OCC)OCC)CC1

>  <quantity_unit>
%

>  <experimental_value>
58.6

$$$$
>  <smiles_representation>
CCOP(=O)(OCC)S/C(=N\N=C\c1ccc([N+](=O)[O-])cc1)N1CCN(/C(=N\N=C\c2ccc([N+](=O)[O-])cc2)SP(=O)(OCC)OCC)CC1

>  <quantity_unit>
%

>  <experimental_value>
40.8

$$$$
>  <smiles_representation>
S=C(N/N=C/c1ccccc1Cl)N1CCN(C(=S)N/N=C/c2ccccc2Cl)CC1

>  <quantity_unit>
%

>  <experimental_value>
30.8

$$$$
